All figures here come from ChEMBL document CHEMBL4177749.

- Tested on: Acinetobacter baumannii
- ASSAY DETAILS: Antibacterial activity against Acinetobacter baumannii ATCC BAA 1793 clinical isolate after 18 hrs by broth microdilution method
- Format: functional
- EXPERIMENTAL PARAMETERS: ATCC BAA 1793, 18 h
Entries and their measured MIC follow.

COMPOUND | MIC
CC(=O)NC[C@H]1CN(c2ccc(N3CCN(C(=O)CNC(=O)OCC4=C(C(=O)O)N5C(=O)[C@@H](NC(=O)C(N)c6ccccc6)[C@H]5SC4)CC3)c(F)c2)C(=O)O1 (stereo partly specified) | > 50 µM
CC(=O)NC[C@H]1CN(c2ccc(N3CCN(C(=O)CNC(=O)CN(CCCCNC(=O)c4cccc(O)c4O)C(=O)c4cccc(O)c4O)CC3)c(F)c2)C(=O)O1 | > 50 µM
CC(=O)OCC1=C(C(=O)O)N2C(=O)[C@@H](NC(=O)C(N)c3ccccc3)[C@H]2SC1 (stereo partly specified) | > 50 µM
CC(=O)OCC1=C(C(=O)O)N2C(=O)[C@@H](NC(=O)C(NC(=O)CN(CCCCNC(=O)c3cccc(O)c3O)C(=O)c3cccc(O)c3O)c3ccccc3)[C@H]2SC1 (stereo partly specified) | 12.5 µM
CC(=O)NC[C@H]1CN(c2ccc(N3CCN(C(=O)CNC(=O)OCC4=C(C(=O)O)N5C(=O)[C@@H](NC(=O)C(NC(=O)CN(CCCCNC(=O)c6cccc(O)c6O)C(=O)c6cccc(O)c6O)c6ccccc6)[C@H]5SC4)CC3)c(F)c2)C(=O)O1 (stereo partly specified) | 0.8 to 16 µM

# ---- query compound ----
Task: Quick check: MIC of CC(=O)NC[C@H]1CN(c2ccc(N3CCN(C(=O)CN)CC3)c(F)c2)C(=O)O1 ?
Output: > 50 µM
